assay: Ex vivo biodistribution of 68Ga-labeled tracers in PC-3 tumor-bearing mice; conditions: mouse, muscle, intravenous; 1 h pi, n = 4; read-out: Muscle uptake
Listed compounds paired with reported tissue uptake at 1 h
Your answer is read as %ID/g, so omit the unit and give the number.

- compound: "CC(C)C[C@H](NC(=O)[C@H](Cc1cnc[nH]1)N(C)C(=O)CNC(=O)[C@@H](NC(=O)[C@H](C)NC(=O)[C@H](Cc1c[nH]c2ccccc12)NC(=O)[C@H](CCC(N)=O)NC(=O)[C@@H](Cc1ccccc1)NC(=O)CN1CCC(NC(=O)CN2CCN(CC(=O)O)CCN(CC(=O)O)CCN(CC(=O)O)CC2)CC1)C(C)(C)C)C(=O)N1CC(F)(F)C[C@H]1C(N)=O [[^68Ga]Ga-LW02060, metal not drawn]"
  experimental result: 0.12

Consider now this further compound.
Qu. Return value of tissue uptake at 1 h for input CC(C)C[C@@H](CN1CC(F)(F)C[C@H]1C(N)=O)NC(=O)[C@H](Cc1c[nH]cn1)NC(=O)CN(C)C(=O)[C@@H](NC(=O)[C@H](C)NC(=O)[C@H](Cc1c[nH]c2ccccc12)NC(=O)[C@H](CCC(N)=O)NC(=O)[C@@H](Cc1ccccc1)NC(=O)CN1CCC(NC(=O)CN2CCN(CC(=O)O)CCN(CC(=O)O)CCN(CC(=O)O)CC2)CC1)C(C)C [[^68Ga]Ga-LW02080, metal not drawn] , no commentary.
Ans. 0.06

---

List of tissue to tissue ratio at 1 h values.
experiment: Ex vivo biodistribution of 68Ga-labeled tracers in PC-3 tumor-bearing mice; conditions: male, NOD.Cg-Rag1^tm1Mom Il2rg^tm1Wjl/SzJ (NRG), mouse, tumor/bone, iv, total radioactivity, 1 h pi, n = 4; read-out: Tumor/bone uptake ratio
# respond with the number and nothing more

- compound: "CC(C)C[C@@H](CN1CC(F)(F)C[C@H]1C(N)=O)NC(=O)[C@H](Cc1c[nH]cn1)NC(=O)CN(C)C(=O)[C@@H](NC(=O)[C@H](C)NC(=O)[C@H](Cc1c[nH]c2ccccc12)NC(=O)[C@H](CCC(N)=O)NC(=O)[C@@H](Cc1ccccc1)NC(=O)CN1CCC(NC(=O)CN2CCN(CC(=O)O)CCN(CC(=O)O)CCN(CC(=O)O)CC2)CC1)C(C)C [[^68Ga]Ga-LW02080, metal not drawn]"
  experimental result: 69.8

Turning now to a further compound:
Qu. Query tissue to tissue ratio at 1 h for CC(C)C[C@H](NC(=O)[C@H](Cc1cnc[nH]1)N(C)C(=O)CNC(=O)[C@@H](NC(=O)[C@H](C)NC(=O)[C@H](Cc1c[nH]c2ccccc12)NC(=O)[C@H](CCC(N)=O)NC(=O)[C@@H](Cc1ccccc1)NC(=O)CN1CCC(NC(=O)CN2CCN(CC(=O)O)CCN(CC(=O)O)CCN(CC(=O)O)CC2)CC1)C(C)(C)C)C(=O)N1CC(F)(F)C[C@H]1C(N)=O [[^68Ga]Ga-LW02060, metal not drawn]
Ans. 179

---

# tissue uptake at 24 h annotations
experiment: Ex vivo biodistribution of 177Lu-labeled ligands in PC-3 tumor-bearing mice; details: mouse, kidneys, intravenous, 24 h pi, n = 5; read-out: Kidneys uptake
Answer in %ID/g, number only, no unit symbol.

Qu. Return value of tissue uptake at 24 h for input CC(C)C[C@H](NC(=O)[C@H](Cc1cnc[nH]1)N(C)C(=O)CNC(=O)[C@@H](NC(=O)[C@H](C)NC(=O)[C@H](Cc1c[nH]c2ccccc12)NC(=O)[C@H](CCC(N)=O)NC(=O)[C@@H](Cc1ccccc1)NC(=O)CN1CCC(NC(=O)CN2CCN(CC(=O)O)CCN(CC(=O)O)CCN(CC(=O)O)CC2)CC1)C(C)(C)C)C(=O)N1CC(F)(F)C[C@H]1C(N)=O [[^177Lu]Lu-LW02060, metal not drawn] , no commentary.
Ans. 1.06

Qu. Output tissue uptake at 24 h of CC(C)C[C@@H](CN1CC(F)(F)C[C@H]1C(N)=O)NC(=O)[C@H](Cc1c[nH]cn1)NC(=O)CN(C)C(=O)[C@@H](NC(=O)[C@H](C)NC(=O)[C@H](Cc1c[nH]c2ccccc12)NC(=O)[C@H](CCC(N)=O)NC(=O)[C@@H](Cc1ccccc1)NC(=O)CN1CCC(NC(=O)CN2CCN(CC(=O)O)CCN(CC(=O)O)CCN(CC(=O)O)CC2)CC1)C(C)C [[^177Lu]Lu-LW02080, metal not drawn]
Ans. 0.89
